What protein stability index was measured for each of the following?
B1: RAD54B (parent)
chain: YVQEKRDGLKRRQQLEEELLRAKI

Variants of: B1
METHOD DESCRIPTION: protein stability index of a GFP-peptide fusion (GPS, HEK-293T) (PSI 1-6); higher = more stable;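 note: lentivirally expressed fusions sorted by FACS into six bins by GFP to DsRed ratio, PSI derived from sequencing read proportions per bin multiplied by bin number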
CONDITIONS USED: c terminus: a fixed tail appended
Format: numeric value only, no unit, no commentary.

Note to self: protein stability index recorded for `D7T` was 3.69

Notebook: `E18T` , protein stability index read as 1.48

protein stability index for `K23L` is 3.08

Entry `K5E` , protein stability index reported as 3.57

# variant `Y1M` ; its protein stability index = 3.95

Form: variant = `L15F` ; protein stability index = 1.4

Value of measured protein stability index for the entry `K23R` : 2.45

`V2K` yielded protein stability index of 3.82

Data point: `E17A` ; protein stability index = 1.6

// protein stability index lookup, variant = `L15C` , result: 1.87

Lab book: protein stability index of `K23F` noted as 1.81

`G8D` yielded protein stability index of 2.27

# protein stability index of `E4L` = 1.67

The variant listed as `K23H` has a reported protein stability index of 2.95

Given item `Y1V` , the value recorded as its protein stability index is 2.81

Kindly note the recorded protein stability index for `E4P` , which is 2.23

The variant `R6E` showed protein stability index equal to 3.26

Query `K10T` yields protein stability index of 2.5

For record `I24K` the listed protein stability index is 1.87

Record `K5T` . Reported protein stability index: 1.74

The variant listed as `Q14N` has a reported protein stability index of 1.65

Lab note: measured protein stability index of `I24C` was 1.75

Note to self: protein stability index recorded for `K5C` was 2.16

get_value(item= `L20V` , readout=protein stability index) returns 1.49

`L15V` has a reported protein stability index of 1.48

Input `R11G` . Output protein stability index: 2

According to the records, this variant `L20P` displays protein stability index of 1.78

Measured protein stability index of `K23S` : 2.36

protein stability index recorded for this variant, `Q13R` , is 1.71

In plain terms, `K10Y` has a documented protein stability index of 1.77

So, `D7P` ? Its protein stability index was 1.88

Kindly note the recorded protein stability index for `Y1T` , which is 3.59

Lab book: protein stability index of `R6W` noted as 2.07

Value of measured protein stability index for the entry `L15R` : 1.99

Record `E17M` . Reported protein stability index: 2.21

protein stability index measured on `L9F` = 2.02

# protein stability index (variant: `Q13L` ) is 2.32

So for `Q14S` , the logged protein stability index turned out to be 1.67

Briefly, protein stability index measured for `Q13T` : 2.32

Recorded protein stability index (variant `E16D` ): 1.77

// field: protein stability index; key: `K23I` ; value = 1.73

Item: `K5D` | protein stability index: 3.46

Per the records, this variant ( `K5R` ) has protein stability index equal to 1.86

For this variant ( `E4A` ), measured protein stability index is 1.83

The measured protein stability index associated with `E16R` reads 1.53

Please fill in: protein stability index reported for `R12A` = 1.85

Measured protein stability index, `L20R` : 2.18

Just so you know, measured protein stability index for `R21H` came out at 1.57

The recorded protein stability index for `R11W` is 2.46

For this variant ( `Q13N` ), measured protein stability index is 1.91

Recorded protein stability index (variant `E4Q` ): 1.68

The recorded protein stability index for entry `V2P` equals 3.2

// sample `E17K` , its protein stability index was 1.9

protein stability index in this record for `E4V` : 1.6

What the record says about `L9S` : protein stability index is 1.99

protein stability index measured on `V2E` = 4.64

Record summary for `L19T` : reported protein stability index = 1.75

So, `K10F` ? Its protein stability index was 1.6

// sample `Q14V` , its protein stability index was 2.01

Just so you know, measured protein stability index for `K23T` came out at 2.08

Lookup result for `V2L` ; measured protein stability index: 3.41

Documented protein stability index of `G8A` : 1.82

Sample `R11T` ; protein stability index observed: 2.46

The reported value for `Q3D` in terms of protein stability index is 2.97

In plain terms, `R12Q` has a documented protein stability index of 2.35

Lookup result for `V2A` ; measured protein stability index: 3.72

Looking up `R12D` , I found its protein stability index recorded as 3.23

Per the records, this variant ( `R6P` ) has protein stability index equal to 1.94

Memo: `E17W` , reported protein stability index: 1.9

Record `D7K` . Reported protein stability index: 2.16

Field protein stability index (entry `A22F` ) reads 2.06

`L15H` has a reported protein stability index of 2.38

Form field protein stability index, entry `E16C` : 2.09

The measured protein stability index associated with `L9H` reads 2.1

For record `D7N` the listed protein stability index is 1.81

Notebook: `L15D` , protein stability index read as 2.09

What the record says about `K5I` : protein stability index is 2.77

// sample `E17D` , its protein stability index was 2.01

For `K10E` the variant record lists protein stability index as 2.58

What the record says about `L9G` : protein stability index is 2.14

Value of measured protein stability index for the entry `Y1G` : 4.19

Looking up `L19K` , I see its protein stability index listed as 2.42

protein stability index measured on `V2G` = 4.12

According to the records, this variant `R12H` displays protein stability index of 2.18

Record `L20K` . Reported protein stability index: 2.19
